Data provenance: patent US20260209234A1

Molecular target: human M4 receptor (Homo sapiens, UniProt P08173)
Sequence (P08173 whole entry): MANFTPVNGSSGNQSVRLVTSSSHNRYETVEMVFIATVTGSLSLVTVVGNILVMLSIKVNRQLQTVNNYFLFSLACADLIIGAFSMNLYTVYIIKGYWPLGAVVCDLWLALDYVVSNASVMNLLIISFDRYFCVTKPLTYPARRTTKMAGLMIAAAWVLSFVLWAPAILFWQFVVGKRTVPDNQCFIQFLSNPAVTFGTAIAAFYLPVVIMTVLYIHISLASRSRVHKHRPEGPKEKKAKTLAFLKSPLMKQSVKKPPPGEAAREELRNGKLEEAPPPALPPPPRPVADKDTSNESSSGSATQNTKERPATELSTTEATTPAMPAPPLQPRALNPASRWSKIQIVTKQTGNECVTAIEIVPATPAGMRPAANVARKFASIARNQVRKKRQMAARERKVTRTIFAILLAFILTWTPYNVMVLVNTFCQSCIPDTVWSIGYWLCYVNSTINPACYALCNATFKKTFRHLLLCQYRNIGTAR
Test: M4 GTPγS PAM assay
Conditions: membranes of CHO-K1 cells stably expressing human M4; EC20 acetylcholine 40 nM; 35S-GTP
Procedure: The M4 GTPγS PAM method was used. Membranes were prepared for GTPgS binding assays from CHO-K1 cells stably expressing human M4 receptor. Briefly, cells were grown in 5-layer cell culture flasks. Cells were washed with 50 mL of PBS and then dissociated with 0.05% trypsin. Dissociated cells were then collected by centrifugation at 650×g for 8 minutes at 4° C. […] Membrane protein concentration is determined by BCA protein assay (Promega, Madison, WI) according to Promega guidelines. […]
pEC50: −log10 of the molar value.
Measured pEC50 accompanies every entry in the list below.

1. COc1nc2c(c(OC)n1)C(C)N(C(=O)CC1CN(c3ccc(C#N)cc3)C1)C2 (single isomer, unassigned) [Compound I-65] : ≤ 5.70
2. COc1nc(C#N)nc2c1CN(C(=O)CC1CN(c3ccnc(C(F)(F)F)c3)C1)C2 : ≥ 7.00
3. COc1nc(C)nc2c1C(C)N(C(=O)CC1CN(c3ccnc(C(F)(F)F)c3)C1)C2 (single isomer, unassigned) [Compound I-52] : ≥ 7.00
4. COc1nc(C)nc2c1C(C)N(C(=O)CC1CN(c3ccc(C#N)cc3)C1)C2 (single isomer, unassigned) [Compound I-57] : 5.70 to 6.30
5. COc1nc(C#N)nc2c1C(C)N(C(=O)CC1CN(c3ccnc(C(F)(F)F)c3)C1C)C2 (single isomer, unassigned) [Compound I-39] : ≤ 5.70

Documented pEC50 of COc1nc(C)nc2c1CN(C(=O)CC1CN(c3ccnc(C(F)(F)F)c3)C1)C2C (single isomer, unassigned) [Compound I-62] : 6.30 to 7.00

Documented pEC50 of COc1nc(C#N)nc2c1C(C)N(C(=O)CC1CN(c3ccnc(OC4CC4)c3)C1)C2 (single isomer, unassigned) [Compound I-13] : 5.70 to 6.30

Documented pEC50 of COc1nc2c(c(OC)n1)C(C)N(C(=O)CC1CN(c3ccnc(C(F)(F)F)c3)C1)C2 (single isomer, unassigned) [Compound I-68] : ≥ 7.00

Documented pEC50 of `COc1nc(C)c2c(n1)CN(C(=O)CC1CN(c3ccnc(C(F)(F)F)c3)C1)C2` : 6.30 to 7.00

Documented pEC50 of COc1nc(C#N)nc2c1C(C)N(C(=O)CC1CN(c3ccc(C4CC4)c(F)c3)C1)C2 (single isomer, unassigned) [Compound I-22] : 6.30 to 7.00

Documented pEC50 of `Cc1nc2c(c(OCC3CC3)n1)CN(C(=O)CC1CN(c3ccnc(C(F)(F)F)c3)C1)C2` : ≤ 5.70

Documented pEC50 of COc1nc(C#N)nc2c1C(C)N(C(=O)CC1CN(c3ccnc(C(F)(F)F)c3)C1C)C2 (single isomer, unassigned) [Compound I-38] : 5.70 to 6.30

Documented pEC50 of `COc1nc2c(c(OC)n1)CN(C(=O)CC1CN(c3ccnc(C(F)(F)F)c3)C1)C2` : 5.70 to 6.30

Documented pEC50 of COc1nc(OC)c2c(n1)C(C)N(C(=O)CC1CN(c3ccnc(C(F)(F)F)c3)C1)C2 (single isomer, unassigned) [Compound I-70] : ≥ 7.00

Documented pEC50 of `COc1nc(Cl)nc2c1CN(C(=O)CC1CN(c3ccnc(C(F)(F)F)c3)C1)C2` : ≥ 7.00

Documented pEC50 of COc1nc(C#N)nc2c1CN(C(=O)CC1CN(c3ccnc(C(F)(F)F)c3)C1)C2C (single isomer, unassigned) [Compound I-35] : ≤ 5.70

Documented pEC50 of COc1nc(C#N)nc2c1C(C)N(C(=O)CC1CN(c3ccc(C#N)cc3)C1)C2 (single isomer, unassigned) : ≥ 7.00
